Reference for the values: patent US20100184771A1

Molecular target: human CRF receptor I (Homo sapiens)
Construct: expressed in transfected cells; host or cells: CHO-K1
Sequence (P34998 24-415): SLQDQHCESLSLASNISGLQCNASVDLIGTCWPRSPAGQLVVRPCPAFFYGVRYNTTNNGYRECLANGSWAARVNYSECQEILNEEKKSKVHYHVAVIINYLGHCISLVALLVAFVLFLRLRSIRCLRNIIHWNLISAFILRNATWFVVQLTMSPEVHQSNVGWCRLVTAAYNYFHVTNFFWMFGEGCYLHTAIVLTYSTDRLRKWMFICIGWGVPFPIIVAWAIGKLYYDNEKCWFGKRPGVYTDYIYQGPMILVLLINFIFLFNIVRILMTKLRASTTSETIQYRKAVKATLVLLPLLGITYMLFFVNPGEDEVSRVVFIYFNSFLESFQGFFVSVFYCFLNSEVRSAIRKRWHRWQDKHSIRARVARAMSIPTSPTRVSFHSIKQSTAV
Assay: Binding assay (125I-CRF, membrane fraction of CHO-K1 cells with forced expression of the receptor)
Details: 125I-CRF 0.25 nM, room temperature, 2 hours

>  <MOLECULE>
CCC(CC)c1cc(C)n2nc(-c3ccc(OC)cc3C)c(C)cc12 [Example 8]

>  <IC50, nM>
16.4

$$$$
